biological target: human adenosine A2A receptors (Homo sapiens); construct: host or cells: HEK-293; test: Adenosine receptor binding: binding affinities at hA2A receptors ([3H]CGS-21680 displacement); conditions: Table 1; [3H]CGS-21680 displacement, HEK-293 membranes; read-out: Binding Affinity hA2A-Ki
Sequence (P29274 whole entry): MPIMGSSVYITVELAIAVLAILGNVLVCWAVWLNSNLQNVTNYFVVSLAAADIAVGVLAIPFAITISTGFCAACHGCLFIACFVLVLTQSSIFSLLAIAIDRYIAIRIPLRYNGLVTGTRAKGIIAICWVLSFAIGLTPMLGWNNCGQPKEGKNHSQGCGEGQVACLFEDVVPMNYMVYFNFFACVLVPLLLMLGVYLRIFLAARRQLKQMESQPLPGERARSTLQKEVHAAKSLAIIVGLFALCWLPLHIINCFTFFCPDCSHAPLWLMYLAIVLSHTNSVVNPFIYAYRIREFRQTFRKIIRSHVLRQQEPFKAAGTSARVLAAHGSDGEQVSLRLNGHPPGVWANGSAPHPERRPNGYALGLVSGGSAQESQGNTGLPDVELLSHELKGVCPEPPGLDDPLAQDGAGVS
MEASURED_QUANTITY: Ki (nM)

MOLECULE: COCc1cccc(Cn2nnc3c(-c4nc(C)cs4)nc(N)nc32)n1
ASSAY_TARGET: human adenosine A2A receptors (Homo sapiens)
MEASURED_QUANTITY: Ki
REPORTED_RESULT: 4.8

a = Cc1ccc(-c2nc(N)nc3c2nnn3Cc2cccc(C3(O)CCOCC3)n2)o1
b = COCc1cccc(Cn2nnc3c(-c4ccccc4)nc(N)nc32)n1
In: Hey, which is lower on measured Ki, a or b ? Refer to your chosen entry by its label in the reply.
Out: b

###

Biological target: hA2B receptors (Homo sapiens)
Construct: host or cells: HEK-293
Sequence (P29275 1-332): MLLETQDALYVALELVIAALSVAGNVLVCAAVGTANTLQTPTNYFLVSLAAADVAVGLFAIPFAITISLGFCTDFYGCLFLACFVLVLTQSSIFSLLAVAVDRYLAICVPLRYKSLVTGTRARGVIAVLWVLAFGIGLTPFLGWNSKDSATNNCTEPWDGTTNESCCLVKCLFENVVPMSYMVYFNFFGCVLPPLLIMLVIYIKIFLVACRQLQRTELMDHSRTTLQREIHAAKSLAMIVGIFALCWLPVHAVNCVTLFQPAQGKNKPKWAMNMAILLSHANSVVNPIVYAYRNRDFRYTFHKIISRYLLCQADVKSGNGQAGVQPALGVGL
Assay: Adenosine receptor binding: binding affinities at hA2B receptors ([3H]-ZM241385 displacement)
Conditions: Table 1; [3H]-ZM241385 displacement, HEK-293 membranes; read-out: Binding Affinity hA2B-Ki
MEASURED_QUANTITY: Ki (µM)

1 = Nc1nc(-c2ccccc2)c2nnn(Cc3cccc(CO[C@H]4CCOC4)n3)c2n1 [Example 7]
2 = N#Cc1cccc(-c2nc(N)nc3c2nnn3Cc2cccc(C3(O)CCC3)n2)c1 [Example 23]
In: Of the two listed items, which has the higher Ki? First: 1 Second: 2 Refer to your chosen entry by its label in the reply.
Out: 2

###

target: hA2B receptors (Homo sapiens, UniProt P29275); construct: host or cells: HEK-293; test: Adenosine receptor binding: binding affinities at hA2B receptors ([3H]-ZM241385 displacement); conditions: Table 2; comparative compounds of WO 02/055083; read-out: Binding Affinity hA2B-Ki
MEASURED_QUANTITY: Ki (nM)

Solved cases below.
COMPOUND: CC(C)COCc1cccc(Cn2nnc3c(-c4ccco4)nc(N)nc32)n1 [WO 02/055083 Example 217, reference compound]
DISPLAY_UNIT: nM
Ki: 382
//
COMPOUND: Cl.Nc1nc(-c2ccco2)c2nnn(Cc3cccc(CO)n3)c2n1 [WO 02/055083 Example 213, hydrochloride, reference compound]
DISPLAY_UNIT: nM
Ki: 271
//
COMPOUND: Nc1cccc(Cn2nnc3c(-c4ccccc4)nc(N)nc32)c1 [WO 02/055083 Example 151, reference compound]
DISPLAY_UNIT: nM
Ki: 276

P = COCc1cccc(Cn2nnc3c(-c4ccc(C)o4)nc(N)nc32)n1 [WO 02/055083 Example 183, reference compound]
Q = CC(C)OCc1cccc(Cn2nnc3c(-c4ccco4)nc(N)nc32)n1 [WO 02/055083 Example 247, reference compound]
In: Hey, which is lower on measured Ki, P or Q ? Refer to your chosen entry by its label in the reply.
Out: P
(P: 231 nM, Q: 454 nM)
